- ASSAYED_TARGET: Free fatty acid receptor 1 (Homo sapiens, UniProt O14842)
- Sequence (O14842 whole entry): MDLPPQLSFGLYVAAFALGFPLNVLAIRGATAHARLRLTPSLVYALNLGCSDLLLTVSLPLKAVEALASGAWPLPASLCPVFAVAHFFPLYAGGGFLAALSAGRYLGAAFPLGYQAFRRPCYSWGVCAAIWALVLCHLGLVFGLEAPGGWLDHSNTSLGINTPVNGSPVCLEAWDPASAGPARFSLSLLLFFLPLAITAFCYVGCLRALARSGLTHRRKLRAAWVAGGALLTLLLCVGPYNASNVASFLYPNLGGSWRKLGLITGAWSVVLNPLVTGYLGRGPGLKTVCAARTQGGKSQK
- TEST_DETAILS: Agonist activity at human GPR40 expressed in CHOK1 cells assessed as fold increase in calcium flux at 10 uM by fluorescence assay relative to control
- Format: functional, cell-based
- RECORDED_CONDITIONS: CHO-K1
MEASURED_PROPERTY: fold change (FC)

(a) CCCCOc1cc(OCCCC)c(C(=O)CC(C)C)c(O)c1C(=O)CC(C)C
(b) CCCCCCCCCCCC(=O)c1c(O)cc(O)c(C(=O)CCCCCCCCCCC)c1O
// compare measured fold change (FC) between a and b ; output the lower one Please indicate the selected item by its label.
a

(1) CCCCc1c(O)c(C(=O)CC(C)C)c(O)c(C(=O)CC(C)C)c1O
(2) CCCCOc1cc(O)c(C(=O)CC(C)C)c(O)c1C(=O)CC(C)C
// compare measured fold change (FC) between 1 and 2 ; output the lower one Please indicate the selected item by its label.
2
(2: 1.02, 1: 2.12)

(a) CCCCC/C=C\C/C=C\CCCCCCCC(=O)O
(b) O=C(/C=C/C(=O)c1c(O)cc(O)cc1O)c1c(O)cc(O)cc1O
// compare measured fold change (FC) between a and b ; output the lower one Please indicate the selected item by its label.
b
